System: cerivastatin-induced APPΔC31 in CHO-7W cells
EXPERIMENT: APPΔC31 AlphaLISA dose-response, cerivastatin-induced
Type: cell-based, Chinese hamster
TEST PARAMETERS: Cricetulus griseus, AlphaLISA dose-response (Figure 5C), cerivastatin-stimulated, 24 h, read-out: IC50, APPΔC31 inhibition
MEASUREMENT KIND: IC50 (µM)
Give the value, in units of µM, as a plain number.

Record CC(C)C(NC(=O)c1ccc2ccccc2n1)C(=O)NC(CC(=O)O)C(=O)COc1c(F)cccc1F (stereo not shown) , field IC50: 7.5

====

EXPERIMENT: In vivo pharmacokinetic analysis of spiperone
Parameters: species or system mice (C57B6)
TEST PARAMETERS: male, C57B6, brain and plasma, other: subcutaneous and intraperitoneal (both routes), 0.25 mg/mouse, SQ and IP routes, read-out: brain:plasma ratio
MEASUREMENT KIND: Kp

Notebook: O=C(CCCN1CCC2(CC1)C(=O)NCN2c1ccccc1)c1ccc(F)cc1 [Spiperone] , Kp read as ~0.5

====

EXPERIMENT: in vitro
TEST PARAMETERS: Chinese hamster
MEASUREMENT KIND: viability at 24 h, 10 µM
Param answer (str): number followed by unit.

Entry under test: COCc1c(C(C)C)nc(C(C)C)c(/C=C/[C@@H](O)C[C@@H](O)CC(=O)O)c1-c1ccc(F)cc1 . Its viability at 24 h, 10 µM was 15%

====

For each of the compounds below, state its % Min (APPΔC31 dose-response).
Tested on: cerivastatin-induced APPΔC31 in CHO-7W cells
EXPERIMENT: APPΔC31 AlphaLISA dose-response, cerivastatin-induced
Type: cell-based, Chinese hamster
TEST PARAMETERS: AlphaLISA dose-response (Figure 5C), cerivastatin-stimulated, 24 h
Counter-ions that a name gives are not always drawn.
Dear colleague, please return just the value in %, with no unit written.

Field % Min (APPΔC31 dose-response) (entry O=c1[nH]c2ccccc2n1C1CCN(CCCC(c2ccc(F)cc2)c2ccc(F)cc2)CC1 [Pimozide] ) reads 19

% Min (APPΔC31 dose-response) reading for CC(C)C(NC(=O)c1ccc2ccccc2n1)C(=O)NC(CC(=O)O)C(=O)COc1c(F)cccc1F (stereo not shown) [QVD-OPh, Q-VD-OPh] : 0

// field: % Min (APPΔC31 dose-response); key: O=C(CCCN1CCC2(CC1)C(=O)NCN2c1ccccc1)c1ccc(F)cc1 [Spiperone] ; value = 23

GET /value?item= O=C(CCCN1CCC2(CC1)C(=O)N(Cc1cccc(F)c1)CN2c1ccccc1)c1ccc(F)cc1 [3′Fluorobenzylspiperone maleate, 3′-fluorobenzylspiperone maleate] &field=% Min (APPΔC31 dose-response) returns 25

====

EXPERIMENT: In vivo pharmacokinetic analysis of spiperone
Set-up: species or system mice (C57B6)
TEST PARAMETERS: male, C57B6, brain; mouse, intraperitoneal (IP), 10 mg/kg, n = 1 per time point; read-out: peak brain level (Cmax)
MEASUREMENT KIND: Cmax

The reported Cmax of the molecule O=C(CCCN1CCC2(CC1)C(=O)NCN2c1ccccc1)c1ccc(F)cc1 [Spiperone] was ~205 ng/g

Cited source: paper PMC5309220
